# Tested on: HepG2
# Test: relative viability EC50 (midpoint between 100% and the lowest measured viability); higher = less toxic
# Conditions Used: 72 h
Measurement Label: relative viability EC50

Previously resolved entries follow.
>  <Molecule>
Clc1ccc2c(c1)N=C(N1CCNCC1)c1ccccc1N2

>  <Observed Measurement>
> 10 µM

$$$$
>  <Molecule>
CC(C)(C)C[C@@H]1N[C@@H](C(=O)N[C@H]2CC[C@H](O)CC2)[C@H](c2cccc(Cl)c2F)[C@]12C(=O)Nc1cc(Cl)ccc12

>  <Observed Measurement>
0.315 µM

$$$$
>  <Molecule>
O=C(OC(C(F)(F)F)C(F)(F)F)N1CCC(C(O)(c2ccc3c(c2)OCO3)c2ccc3c(c2)OCO3)CC1

>  <Observed Measurement>
> 10 µM

$$$$
>  <Molecule>
O=C1c2ccccc2C(=O)C1c1ccccc1

>  <Observed Measurement>
> 10 µM

$$$$
>  <Molecule>
Cc1oc(=O)oc1CN1CCN(c2cc3c(cc2F)c(=O)c(C(=O)O)c2n3C(C)S2)CC1 (centres undefined)

>  <Observed Measurement>
> 10 µM

$$$$

For each of the items listed, what is its relative viability EC50?
1. N[C@H]1C[C@@H]1c1ccccc1 (racemic)
2. Oc1ccc2c(c1)CC[C@H](c1ccccc1)[C@@H]2c1ccc(OCCN2CCCC2)cc1
3. CC(=O)N1CCN(c2ccc(OC[C@@H]3CO[C@@](Cn4ccnc4)(c4ccc(Cl)cc4Cl)O3)cc2)CC1 (racemic)

Result:
1. > 10 µM
2. 2.46 µM
3. > 10 µM

###

# Test system: A549-ACE2
# Test: drug-induced phospholipidosis relative to tamoxifen; higher = more phospholipidosis
# Conditions Used: 0.3 µM; 24 h
Measurement Label: drug-induced phospholipidosis

Items follow; give drug-induced phospholipidosis for each.
1. CC[C@@H](C(=O)[C@@H](C)[C@@H](O)[C@H](C)[C@@H]1O[C@@H]([C@@H](CC)C(=O)O)CC[C@@H]1C)[C@H]1O[C@]2(C=C[C@@H](O)[C@]3(CC[C@@](C)([C@H]4CC[C@](O)(CC)[C@H](C)O4)O3)O2)[C@H](C)C[C@@H]1C
2. CN1CCN(S(=O)(=O)c2ccc(-c3cnc(N)c(C(=O)Nc4cccnc4)n3)cc2)CC1
3. c1cc2c(cc1C1CCCCC1)c1c3n2CCNC3CCC1 (centres undefined)
4. Nc1ncnc2c1c(-c1cccc(OCc3ccccc3)c1)cn2C1CC(CN2CCCC2)C1 (stereo in doubt)

Result:
["2.06%", "-4.95%", "5.21%", "8.61%"]

###

I'd be grateful if you could share measured drug sensitivity score for these entries.
# System: U2OS
# Test: drug sensitivity score (DSS) for viability; higher = more toxic; extreme values may be limits of the assay
# Conditions Used: 72 h
Numbers only.

>  <Compound>
O=C(c1c2ccccc2cc2ccccc12)N1CCC(N2CCC[C@@H](C(=O)N3CCOCC3)C2)CC1

>  <drug sensitivity score>
0

$$$$
>  <Compound>
COc1c(C)c2c(c(O)c1C/C=C(\C)CCC(=O)O)C(=O)OC2 [mycophenolic-acid]

>  <drug sensitivity score>
8.7

$$$$
>  <Compound>
C[C@@]12CCc3occc3[C@H]1CC[C@@]13C[C@@H](CC[C@H]12)[C@@](O)(CO)C3 [cafestol]

>  <drug sensitivity score>
0

$$$$
>  <Compound>
Nc1ccn([C@@H]2O[C@H](CO)[C@@H](O)[C@@H]2O)c(=O)n1 [cytarabine]

>  <drug sensitivity score>
1.6

$$$$

Would you be so kind as to report drug sensitivity score for each listed record?
1. C/C(=C(\CCOP(=O)(O)O)SC(=O)c1ccccc1)N(C=O)Cc1cnc(C)nc1N [benfotiamine]
2. CN1CCC(OC(c2ccccc2)c2ccccc2)CC1 [diphenylpyraline]
3. N=C(Nc1ccc(I)cc1)NC1C2CC3CC(C2)CC1C3 (stereo not drawn) [IPAG]
4. c1cc(-c2cnn3cc(-c4ccc(OCCN5CCCCC5)cc4)cnc23)ccn1 [dorsomorphin]

Result:
1: 0; 2: 0; 3: 0; 4: 6
